Tested on: J774.A1
experiment.summary: Inhibition of LPS-induced production of nitric oxide in murine J774.A1 cells
Assay type: functional, cell-based, Mus musculus
assay.setup: Mus musculus, J774.A1
pIC50: −log10 of the molar value.
reported.metric: pIC50

Examples with answers:
COc1c(/C=N/N=C(N)N)ccc(/C=N/NC(=N)N)c1OC = 4.55
CCCOc1c(/C=N/N=C(N)N)ccc(/C=N/N=C(N)N)c1OCCC = 5.08
N=C(N)N/N=C/c1ccc(/C=N/NC(=N)N)cc1 = 4.61

I. CCCCOc1c(/C=N/N=C(N)N)ccc(/C=N/NC(=N)N)c1OCCCC
II. CCCCCCCCCCCCCCOc1c(/C=N/N=C(N)N)ccc(/C=N/N=C(N)N)c1OCCCCCCCCCCCCCC
[Q] // compare measured pIC50, left I , right II , return larger Indicate which entry you chose by stating its label.
[A] I

====

Test system: J774.A1
experiment.summary: Inhibition of LPS-induced production of nitric oxide in murine J774.A1 cells
Format: functional, cell-based, Mus musculus
assay.setup: Mus musculus, J774.A1
pIC50: −log10 of the molar value.
reported.metric: pIC50

Examples with answers:
N=C(N)N/N=C/c1ccc(/C=N/NC(=N)N)c(O)c1O = 4.58
CCCCCCCCOc1c(/C=N/N=C(N)N)ccc(/C=N/N=C(N)N)c1OCCCCCCCC = 5.46
CCOc1c(/C=N/N=C(N)N)ccc(/C=N/N=C(N)N)c1OCC = 5.34
CCCCCCOc1c(/C=N/N=C(N)N)ccc(/C=N/NC(=N)N)c1OCCCCCC = 5.33

P. CCCCCOc1c(/C=N/N=C(N)N)ccc(/C=N/N=C(N)N)c1OCCCCC
Q. C=CCOc1c(/C=N/NC(=N)N)ccc(/C=N/NC(=N)N)c1OCC=C
[Q] // compare measured pIC50 between P and Q ; output the lower one Indicate which entry you chose by stating its label.
[A] Q

====

System: Lipopolysaccharide (LPS)
experiment.summary: Binding affinity to lipid A moiety of LPS present in Gram negative bacteria by fluorescent probe method
Assay type: functional
reported.metric: ED50 (µM)

Examples with answers:
CCOc1c(/C=N/N=C(N)N)ccc(/C=N/N=C(N)N)c1OCC = 22.8
CCCCOc1c(/C=N/N=C(N)N)ccc(/C=N/NC(=N)N)c1OCCCC = 9.44
N=C(N)N/N=C/c1ccc(/C=N/NC(=N)N)c(O)c1O = 43.7
CCCOc1c(/C=N/N=C(N)N)ccc(/C=N/N=C(N)N)c1OCCC = 12.7
C=CCOc1c(/C=N/NC(=N)N)ccc(/C=N/NC(=N)N)c1OCC=C = 29.9

1. CCCCCCCCOc1c(/C=N/N=C(N)N)ccc(/C=N/N=C(N)N)c1OCCCCCCCC
2. CCCCCOc1c(/C=N/N=C(N)N)ccc(/C=N/N=C(N)N)c1OCCCCC
3. CCCCCCOc1c(/C=N/N=C(N)N)ccc(/C=N/NC(=N)N)c1OCCCCCC
[Q] List these items ordered by ED50, big to small. Quick reminder: the answer is the labels in the order asked.
[A] 1, 3, 2
(1: 39.5 µM, 3: 13.2 µM, 2: 7.82 µM)

====

System: Lipopolysaccharide (LPS)
experiment.summary: Binding affinity to lipid A moiety of LPS present in Gram negative bacteria by fluorescent probe method
Type: functional
Parameter: ED50. Scope: all listed entries.
Express the result in µM but write the number alone.

N=C(N)N/N=C/c1ccc(/C=N/NC(=N)N)cc1 = 34.6

Switching to the query record.
Test item `COc1c(/C=N/N=C(N)N)ccc(/C=N/NC(=N)N)c1OC` ; Lipopolysaccharide (LPS); reported ED50 was 42.3
